- STUDY_TARGET: Tumour suppressor p53/oncoprotein Mdm2 (Homo sapiens, UniProt Q00987)
- Sequence (P04637 whole entry): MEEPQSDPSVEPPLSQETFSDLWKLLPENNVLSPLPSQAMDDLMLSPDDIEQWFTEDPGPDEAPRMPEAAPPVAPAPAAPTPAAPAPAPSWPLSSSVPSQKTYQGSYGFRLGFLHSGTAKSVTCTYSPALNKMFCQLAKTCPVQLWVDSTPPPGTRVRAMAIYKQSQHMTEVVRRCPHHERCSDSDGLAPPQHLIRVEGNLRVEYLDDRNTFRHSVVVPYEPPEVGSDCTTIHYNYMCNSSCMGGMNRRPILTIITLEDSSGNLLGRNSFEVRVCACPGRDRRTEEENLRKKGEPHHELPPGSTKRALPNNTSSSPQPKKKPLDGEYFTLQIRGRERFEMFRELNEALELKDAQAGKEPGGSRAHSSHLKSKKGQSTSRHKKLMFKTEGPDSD
- Sequence (Q00987 whole entry): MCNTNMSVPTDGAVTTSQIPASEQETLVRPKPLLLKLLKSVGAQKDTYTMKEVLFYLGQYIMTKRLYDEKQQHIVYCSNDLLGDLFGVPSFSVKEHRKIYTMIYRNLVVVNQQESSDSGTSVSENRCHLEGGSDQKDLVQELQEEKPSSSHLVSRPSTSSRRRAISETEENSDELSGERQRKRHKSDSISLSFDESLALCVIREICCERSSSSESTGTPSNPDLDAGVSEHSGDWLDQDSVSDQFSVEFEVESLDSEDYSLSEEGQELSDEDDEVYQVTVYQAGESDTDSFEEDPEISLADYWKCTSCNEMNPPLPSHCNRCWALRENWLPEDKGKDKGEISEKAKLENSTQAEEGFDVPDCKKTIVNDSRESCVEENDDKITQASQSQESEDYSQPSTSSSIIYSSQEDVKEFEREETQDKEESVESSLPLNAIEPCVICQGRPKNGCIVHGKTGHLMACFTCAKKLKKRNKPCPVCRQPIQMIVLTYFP
- METHOD_NOTES: Inhibition of p53-MDM2 interaction after 1 hr by fluorescence polarization assay
QUANTITY: Ki (µM)
Your answer is read as µM, so omit the unit and give the number.

Examples with their reported Ki follow.
COMPOUND: CCOC1=C(C(=O)c2ccccc2)C(c2ccc(Br)cc2)N(CCCn2ccnc2)C1=O (stereo not given)
Ki / µM: 0.69
//
COMPOUND: CCOc1ccc(NC2=C(C(=O)c3ccccc3)C(c3ccc(Br)cc3)N(CCCn3ccnc3)C2=O)cc1 (stereo not given)
Ki / µM: 0.35
//
COMPOUND: O=C(C1=C(Nc2ccc(OC(F)(F)F)cc2)C(=O)N(CCCn2ccnc2)C1c1ccc(Br)cc1)c1ccccc1 (stereo not given)
Ki / µM: 0.12
//
COMPOUND: O=C(C1=C(Nc2ccc(I)cc2)C(=O)N(CCCn2ccnc2)C1c1ccc(Br)cc1)c1ccccc1 (stereo not given)
Ki / µM: 0.27
//
COMPOUND: O=C(C1=C(O)C(=O)N(CCCn2ccnc2)C1c1ccc(Cl)cc1)c1ccc2c(c1)OCCO2 (stereo not given)
Ki / µM: 1.37

Which value of Ki has been reported for CCCOC1=C(C(=O)c2ccccc2)C(c2ccc(Br)cc2)N(CCCn2ccnc2)C1=O (stereo not given) in the records?
6.97

Similarly, O=C(C1=C(O)C(=O)N(CCCn2ccnc2)C1c1ccc(Cl)cc1)c1ccccc1 (stereo not given) ?
23.3

Similarly, O=C(C1=C(Nc2cccc(Br)c2)C(=O)N(CCCn2ccnc2)C1c1ccc(Br)cc1)c1ccccc1 (stereo not given) ?
0.15

Similarly, O=C(C1=C(O)C(=O)N(CCCn2ccnc2)C1c1ccc(C(F)(F)F)cc1)c1ccccc1 (stereo not given) ?
0.81

Similarly, COc1ccc(C(=O)C2=C(O)C(=O)N(c3nccs3)C2c2ccc(C)cc2)cc1 (stereo not given) ?
2.5

###

Items are presented alongside their recorded IC50.
- Test system: A549
- METHOD_NOTES: Antiproliferative activity against human A549 cells expressing wild type p53 after 72 hrs by MTT assay
- Format: functional, cell-based
- CONDITION_INFO: Homo sapiens, A549, 72 h; read-out: IC50
# include the unit after the value

COMPOUND: O=C(C1=C(Nc2ccc(Cl)cc2)C(=O)N(CCCn2ccnc2)C1c1ccc(Br)cc1)c1ccccc1 (stereo not drawn)
IC50: 29.9 µM

Which value of IC50 has been reported for O=C(C1=C(Nc2ccc(I)cc2)C(=O)N(CCCn2ccnc2)C1c1ccc(Br)cc1)c1ccccc1 (stereo not drawn) in the records?
24.5 µM

Similarly, O=C(C1=C(Nc2ccc(Br)cc2)C(=O)N(CCCn2ccnc2)C1c1ccc(Br)cc1)c1ccccc1 (stereo not drawn) ?
22.2 µM
